Cited source for all entries: patent US6822146B2

tested on: homozygous progeny of the three mutant sources; format: in vivo, sunflower; conditions: Test B application rates, post-emergence
assay-endpoint: tolerance of the mutants

Consider the reported tolerance of the mutants for these compounds:
>>> result("CCS(=O)(=O)c1cccnc1S(=O)(=O)NC(=O)Nc1nc(OC)cc(OC)n1 [Rimsulfuron, rimsulfuron]")
"somewhat sensitive"
>>> result("CCS(=O)(=O)c1nc2ccccn2c1S(=O)(=O)NC(=O)Nc1nc(OC)cc(OC)n1 [Sulfosulfuron]")
"somewhat sensitive"
>>> result("COc1nc(C)nc(NC(=O)NS(=O)(=O)c2ccccc2Cl)n1 [Chlorsulfuron, chlorsulfuron]")
"somewhat sensitive"
>>> result("COc1cc(OC)nc(NC(=O)NS(=O)(=O)N(C)S(C)(=O)=O)n1 [Amidosulfuron, amidosulfuron]")
"somewhat sensitive"
>>> result("COc1cc(OC)nc(Sc2cccc(Cl)c2C(=O)O)n1 [Pyrithiobac-sodium]")
"somewhat sensitive"

Kindly give each listed record's tolerance of the mutants.
1. COC(=O)c1ccc(C(F)(F)F)nc1S(=O)(=O)NC(=O)Nc1nc(OC)cc(OC)n1 [Flupyrsulfuron-methyl-sodium]
2. COC(=O)c1c(Cl)nn(C)c1S(=O)(=O)NC(=O)Nc1nc(OC)cc(OC)n1 [Halosulfuron-methyl, halosulfuron-methyl]

**Result**
["somewhat sensitive", "somewhat sensitive"]
